Assignment: determine reported interferometry response value for the given binders.
- ASSAY_SYSTEM: randomly biotinylated human FIXa (human, UniProt P00740 47-191; P00740 227-461, randomly biotinylated (NHS-d-biotin))
- Sequence (P00740 47-191, chain 1 of 2): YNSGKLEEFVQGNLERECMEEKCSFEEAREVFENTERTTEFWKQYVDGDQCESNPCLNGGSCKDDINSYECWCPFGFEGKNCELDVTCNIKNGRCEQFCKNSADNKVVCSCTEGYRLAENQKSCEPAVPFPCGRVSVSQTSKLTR
- Sequence (P00740 227-461, chain 2 of 2): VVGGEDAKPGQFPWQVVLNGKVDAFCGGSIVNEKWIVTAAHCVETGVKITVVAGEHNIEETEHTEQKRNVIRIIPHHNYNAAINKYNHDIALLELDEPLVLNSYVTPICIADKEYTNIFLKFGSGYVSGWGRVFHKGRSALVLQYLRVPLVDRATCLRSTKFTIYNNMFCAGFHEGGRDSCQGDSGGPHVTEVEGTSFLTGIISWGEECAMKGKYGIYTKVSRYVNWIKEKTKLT
- ASSAY_PROTOCOL: BLI (Octet) in-tandem binning on biotinylated FIXa, 330 nM each; competitor (1st antibody): mAb01-1767
One number for each entry.

Before answering, review these 3 worked examples.
224F3 (mAb01-1582) (antibody, V domains shown) VH: QVQMQQSGAELVKPGASVKLSCKASGYTFTSQDINWVRQRPEQGLEWIGWIFPGDGSTKYNEKLKGKATLTTDKSSSTAFMQLSRLTSEDSAVYFCARSAYYRYDGSYYYAMDYWGQGTSVTVSS VL: QIVLTQSPAIMSASLGEEITLTCSASSSVSYMLWYQQKSGTSPKLLIYTTSNLASGVPSRFSGTGSGTFYSLTISSVEAEDAADYYCHQWSSYPRTFGGGTKLEIKR | 1.6
mAb01-9994 (antibody, V domains shown, Bivalent IgG) VH: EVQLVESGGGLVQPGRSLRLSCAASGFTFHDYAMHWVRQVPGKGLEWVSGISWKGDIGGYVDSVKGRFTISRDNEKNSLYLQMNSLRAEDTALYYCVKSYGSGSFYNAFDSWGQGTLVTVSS VL: DIQMTQSPSTLSASVGDRVTITCRASQSISSWLAWYQQKPGKAPKFLIYKASRLDRGTPSRFSGSGSGTEFSLTISSLQPDDFATYYCLEYSSYIRTFGQGTKVEIK | 0.01
mAb01-9985 (antibody, V domains shown, Bivalent IgG) VH: EVQLVESGGGLVQPGRSLRLSCAASGFTFHDYAMHWVRQVPGKGLEWVSGISWRGDIGGYVKSVKGRFTISRDNAKNSLYLQMNSLRAEDTALYYCVKSYGSGSFYNAFDSWGQGTLVTVSS VL: DIQMTQSPSTLSASVGDRVTITCRASQSISSWLAWYQQKPGKAPKFLIYKASKLERGTPSRFSGSGSGTEFSLTISSLQPDDFATYYCLEYSSYIRTFGQGTKVEIK | 0.02

Here is another binder to look at.
Qu. Bench note: what interferometry response value did mAb01-9933 (antibody, V domains shown, Bivalent IgG) VH: EVQLVESGGGLVQPGRSLKLSCAASGFTFDDYAMHWVRQVPGKGLEWVSGISWKGDIGGYVDSVKGRFTISRDNAKNSLYLQLNSLRAEDTALYYCAKSYGSGSFYNAFDSWGQGTLVTVSS VL: DIQMTQSPSTLSASAGDEVTITCRASQSISSWLAWYQQKPGKAPKLLIYKASKLDRGVPSRFSGSGSGTEFSLTISDLQPDDFATYYCLEYSSYIRTFGQGTKVEIK show?
Ans. 0.02
